These data points were gathered from patent US20230174523A1.

- Target Desc: TRAP1 enzyme (Homo sapiens)
- Assay Info: Malachite green phosphate assay of TRAP1 ATPase activity
- Assay type: biochemical
- Measurement Setup: TRAP1 ATPase activation, 150 nM Trap1, 20 μM ATP, geometric mean; read-out: Malachite Green Fluor DRC: GeoMean EC50
Reported Property: EC50

Could you please provide reported EC50 for COc1ccc(NC(=O)c2ncco2)cc1S(=O)(=O)N(CCCCCC(=O)O)c1ccc(Br)cc1 ? Thanks!
10 to 20 µM

Could you please provide reported EC50 for CCc1ccc(NC(=O)c2ncc(-c3ccccc3)o2)cc1S(=O)(=O)Nc1ccc(Cl)nc1 ? Thanks!
< 10 µM

Could you please provide reported EC50 for COc1ccc(NC(=O)c2cnc(-c3ccccc3)o2)cc1S(=O)(=O)Nc1ccc(Br)cc1 ? Thanks!
10 to 20 µM

Could you please provide reported EC50 for CCc1ccc(NC(=O)c2ncco2)cc1S(=O)(=O)Nc1ccc(C(F)(F)F)cc1 ? Thanks!
20 to 100 µM

Could you please provide reported EC50 for COc1ccc(NC(=O)c2nccs2)cc1S(=O)(=O)Nc1ccc(F)cc1 ? Thanks!
20 to 100 µM

###

EC50 by entry:
- Target Desc: TRAP1 enzyme (Homo sapiens, UniProt Q12931)
- Assay Info: ADP Glo assay of TRAP1 ATPase activity
- Type: biochemical
- Measurement Setup: TRAP1 ATPase activation, 150 nM Trap1, 20 μM ATP, geometric mean; read-out: ADP GLO DRC: GeoMean EC50

| Given Smiles | EC50 |
| --- | --- |
| COc1ccc(NC(=O)c2cnn(Cc3ccccc3)c2)cc1S(=O)(=O)Nc1c(C)cccc1C | < 10 µM |
| CCc1ncsc1C(=O)Nc1ccc(OC)c(S(=O)(=O)Nc2c(C)cccc2C)c1 | 20 to 100 µM |
| COc1ccc(NC(=O)c2cc(Cl)ncc2C(F)(F)F)cc1S(=O)(=O)Nc1c(C)cccc1C | 20 to 100 µM |
| COc1ccc(NC(=O)c2cc(C)cs2)cc1S(=O)(=O)Nc1c(C)cccc1C | 10 to 20 µM |

Print TRAP1 enzyme (Homo sapiens, UniProt Q12931) EC50 for Cc1ccc(Sc2ncccc2C(=O)Nc2ccc(F)c(S(=O)(=O)Nc3ccc(Cl)cc3)c2)cc1 .
10 to 20 µM

Print TRAP1 enzyme (Homo sapiens, UniProt Q12931) EC50 for COc1ccc2oc(C(=O)Nc3ccc(OC)c(S(=O)(=O)Nc4c(C)cccc4C)c3)cc2c1 .
< 10 µM

Print TRAP1 enzyme (Homo sapiens, UniProt Q12931) EC50 for COc1ccc(NC(=O)c2cnoc2C2CC2)cc1S(=O)(=O)Nc1c(C)cccc1C .
20 to 100 µM

Print TRAP1 enzyme (Homo sapiens, UniProt Q12931) EC50 for Cc1c(Br)cncc1C(=O)Nc1ccc(F)c(S(=O)(=O)Nc2ccc(Cl)cc2)c1 .
20 to 100 µM

Print TRAP1 enzyme (Homo sapiens, UniProt Q12931) EC50 for CCc1cc(C(=O)Nc2ccc(OC)c(S(=O)(=O)Nc3c(C)cccc3C)c2)cc(C)n1 .
10 to 20 µM

Print TRAP1 enzyme (Homo sapiens, UniProt Q12931) EC50 for COc1ccc(NC(=O)c2csc3c2C2CCN3CC2)cc1S(=O)(=O)Nc1c(C)cccc1C .
10 to 20 µM

Print TRAP1 enzyme (Homo sapiens, UniProt Q12931) EC50 for COc1ccc(NC(=O)c2nn(C(C)C)c3ccccc23)cc1S(=O)(=O)Nc1c(C)cccc1C .
< 10 µM

Print TRAP1 enzyme (Homo sapiens, UniProt Q12931) EC50 for COc1ccc(NC(=O)c2cn(C(C)(C)C)nn2)cc1S(=O)(=O)Nc1c(C)cccc1C .
20 to 100 µM

Print TRAP1 enzyme (Homo sapiens, UniProt Q12931) EC50 for O=C(Nc1ccc(F)c(S(=O)(=O)Nc2ccc(Cl)cc2)c1)c1scnc1C1CC1 .
10 to 20 µM

Print TRAP1 enzyme (Homo sapiens, UniProt Q12931) EC50 for COc1ccc(NC(=O)c2ccc(-c3ccc(F)cc3)cc2F)cc1S(=O)(=O)Nc1c(C)cccc1C .
< 10 µM

Print TRAP1 enzyme (Homo sapiens, UniProt Q12931) EC50 for COc1ccc(NC(=O)c2ccc3c(c2)ncn3C)cc1S(=O)(=O)Nc1c(C)cccc1C .
20 to 100 µM

Print TRAP1 enzyme (Homo sapiens, UniProt Q12931) EC50 for COc1ccc(NC(=O)c2c(I)cnn2C)cc1S(=O)(=O)Nc1c(C)cccc1C .
20 to 100 µM

Print TRAP1 enzyme (Homo sapiens, UniProt Q12931) EC50 for COc1ccc(NC(=O)c2cc(F)cc(Br)c2C)cc1S(=O)(=O)Nc1c(C)cccc1C .
< 10 µM

Print TRAP1 enzyme (Homo sapiens, UniProt Q12931) EC50 for COc1ccc(NC(=O)c2ccc3c(c2)CCN3C)cc1S(=O)(=O)Nc1c(C)cccc1C .
20 to 100 µM

Print TRAP1 enzyme (Homo sapiens, UniProt Q12931) EC50 for COc1ccc(NC(=O)c2ccc3c(=O)n(C)cnc3c2)cc1S(=O)(=O)Nc1c(C)cccc1C .
10 to 20 µM

###

- Target Desc: TRAP1 enzyme (Homo sapiens, UniProt Q12931)
- Assay Info: ADP Glo assay of TRAP1 ATPase activity
- Format: biochemical
- Measurement Setup: TRAP1 ATPase activation, 150 nM Trap1, 20 μM ATP, geometric mean; read-out: ADP GLO DRC: GeoMean EC50
EC50 by entry:

Print TRAP1 enzyme (Homo sapiens, UniProt Q12931) EC50 for COc1ccc(NC(=O)c2cnc(-c3ccccc3)[nH]2)cc1S(=O)(=O)Nc1c(C)cccc1C [Compound 408] .
< 10 µM

Print TRAP1 enzyme (Homo sapiens, UniProt Q12931) EC50 for COc1ccc(NC(=O)c2cccnc2-c2ccc(C)cc2)cc1S(=O)(=O)Nc1c(C)cccc1C [Compound 1045] .
10 to 20 µM

Print TRAP1 enzyme (Homo sapiens, UniProt Q12931) EC50 for COc1ccc(NC(=O)c2cnc(-c3ccsc3)[nH]2)cc1S(=O)(=O)Nc1ccc(Cl)cc1 [Compound 1482] .
< 10 µM

###

- Target Desc: TRAP1 enzyme (Homo sapiens)
- Assay Info: ADP Glo assay of TRAP1 ATPase activity
- Format: biochemical
- Measurement Setup: read-out: ADP GLO DRC: Mean Emax
- Method: Potency of test compounds to modulate the ATPase activity of TRAP1 enzyme was evaluated using ADP Glo assay. The assay is based on quantification of the ADP generated from ATP in the ATPase reaction. […] Second, the Kinase Detection Reagent is added to simultaneously convert ADP to ATP and allow the newly synthesized ATP to be measured using a luciferase/luciferin reaction. […]
Reported Property: Emax

| Compound | Recorded Result |
| --- | --- |
| C=C(C)c1cc(OC)c(S(=O)(=O)Nc2ccc(C(F)(F)F)cc2)cc1NC(=O)c1ncc(-c2ccccc2)o1 [Compound 1189] | > 300% |
| COc1ccc(NC(=O)c2c(I)cnn2C)cc1S(=O)(=O)Nc1c(C)cccc1C [Compound 1088] | 160 to 199% |
| COc1ccc(NC(=O)c2cccnc2-c2ccc(C)cc2)cc1S(=O)(=O)Nc1c(C)cccc1C [Compound 1045] | 123 to 159% |
| Cn1ncc(I)c1C(=O)Nc1ccc(F)c(S(=O)(=O)Nc2ccc(Cl)cc2)c1 [Compound 689] | 160 to 199% |
| COc1ccc(NC(=O)c2sc(-c3cccs3)nc2C)cc1S(=O)(=O)Nc1c(C)cccc1C [Compound 1156] | 123 to 159% |

Could you please provide reported Emax for COc1ccc(NC(=O)c2cnc(-c3ccccc3)s2)cc1S(=O)(=O)Nc1ccc(Cl)cc1 [Compound 468] ? Thanks!
160 to 199%

Could you please provide reported Emax for CCOc1cc(OCC)cc(C(=O)Nc2ccc(OC)c(S(=O)(=O)Nc3c(C)cccc3C)c2)c1 [Compound 1117] ? Thanks!
123 to 159%

Could you please provide reported Emax for COc1ccc(NC(=O)c2cnn(-c3cccnc3)c2)cc1S(=O)(=O)Nc1c(C)cccc1C [Compound 1106] ? Thanks!
200 to 300%

Could you please provide reported Emax for COc1ccc(NC(=O)c2cc(C)n(C(F)F)n2)cc1S(=O)(=O)Nc1c(C)cccc1C [Compound 1149] ? Thanks!
123 to 159%

###

- Target Desc: UniProt Q12931
- Sequence (Q12931 60-704): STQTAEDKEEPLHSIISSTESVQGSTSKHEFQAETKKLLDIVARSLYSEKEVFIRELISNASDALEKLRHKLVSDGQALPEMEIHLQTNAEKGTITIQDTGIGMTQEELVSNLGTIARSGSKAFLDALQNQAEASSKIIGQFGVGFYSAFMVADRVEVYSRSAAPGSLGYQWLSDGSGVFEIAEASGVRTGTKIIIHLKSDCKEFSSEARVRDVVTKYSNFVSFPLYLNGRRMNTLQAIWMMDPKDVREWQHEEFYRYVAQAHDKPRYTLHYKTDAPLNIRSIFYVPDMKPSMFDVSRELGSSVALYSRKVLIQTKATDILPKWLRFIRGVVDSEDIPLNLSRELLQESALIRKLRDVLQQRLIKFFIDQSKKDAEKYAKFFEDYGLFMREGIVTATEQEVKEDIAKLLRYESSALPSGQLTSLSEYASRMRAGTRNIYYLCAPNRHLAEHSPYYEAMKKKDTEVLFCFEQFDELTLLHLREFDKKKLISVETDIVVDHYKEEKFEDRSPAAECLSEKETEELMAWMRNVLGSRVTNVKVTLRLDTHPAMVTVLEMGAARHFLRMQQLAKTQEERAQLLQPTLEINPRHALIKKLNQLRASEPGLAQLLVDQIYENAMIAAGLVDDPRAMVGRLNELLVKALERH
- Assay Info: ADP Glo assay of TRAP1 ATPase activity
- Format: biochemical
- Measurement Setup: TRAP1 ATPase activation, 150 nM Trap1, 20 μM ATP, geometric mean; read-out: ADP GLO DRC: GeoMean EC50
pEC50: −log10 of the molar value.
Reported Property: pEC50

Completed entries (count: 5):
| Compound | Recorded Result |
| --- | --- |
| COc1ccc(NC(=O)c2ncc(-c3ccccc3)o2)cc1S(=O)(=O)Nc1ccc(C)nc1F [Compound 1684] | 4.00 to 4.70 |
| COc1ccc(NC(=O)c2cn(C)nc2C(F)F)cc1S(=O)(=O)Nc1c(C)cccc1C [Compound 1074] | 4.00 to 4.70 |
| O=C(c1ccccc1)c1cccnc1C(=O)Nc1ccc(F)c(S(=O)(=O)Nc2ccc(Cl)cc2)c1 [Compound 836] | 4.00 to 4.70 |
| COc1ccc(NC(=O)c2cc3ccccc3n2C)cc1S(=O)(=O)Nc1c(C)cccc1C [Compound 1170] | > 5.00 |
| Cn1ncc(C(=O)Nc2ccc(F)c(S(=O)(=O)Nc3ccc(Cl)cc3)c2)c1-n1cccc1 [Compound 817] | 4.00 to 4.70 |

Could you please provide reported pEC50 for COc1ccc(NC(=O)c2cccc3ncsc23)cc1S(=O)(=O)Nc1c(C)cccc1C [Compound 1227] ? Thanks!
4.70 to 5.00

Could you please provide reported pEC50 for COc1ccc(NC(=O)c2cccc(-n3nc(C)cc3C)c2)cc1S(=O)(=O)Nc1c(C)cccc1C [Compound 1249] ? Thanks!
4.70 to 5.00

Could you please provide reported pEC50 for COc1ccc(NC(=O)c2cnc3ccoc3c2)cc1S(=O)(=O)Nc1c(C)cccc1C [Compound 1064] ? Thanks!
4.00 to 4.70

Could you please provide reported pEC50 for COc1ccc(NC(=O)c2ccc3nc(C)ccc3c2)cc1S(=O)(=O)Nc1c(C)cccc1C [Compound 1118] ? Thanks!
4.70 to 5.00

Could you please provide reported pEC50 for COc1ccc(NC(=O)c2ccoc2C(F)(F)F)cc1S(=O)(=O)Nc1c(C)cccc1C [Compound 1122] ? Thanks!
4.00 to 4.70

Could you please provide reported pEC50 for COc1ccc(NC(=O)c2cnccc2-c2ccccc2)cc1S(=O)(=O)Nc1c(C)cccc1C [Compound 1022] ? Thanks!
4.00 to 4.70

Could you please provide reported pEC50 for COc1ccc(NC(=O)c2cocn2)cc1S(=O)(=O)Nc1ccc(Cl)cc1 [Compound 1961] ? Thanks!
4.00 to 4.70

Could you please provide reported pEC50 for COc1ccc(NC(=O)c2nc(C(C)C)cs2)cc1S(=O)(=O)Nc1c(C)cccc1C [Compound 1169] ? Thanks!
> 5.00

Could you please provide reported pEC50 for COc1ccc(NC(=O)c2cccc(-c3cnco3)c2)cc1S(=O)(=O)Nc1c(C)cccc1C [Compound 1218] ? Thanks!
4.70 to 5.00
